Some molecules, each annotated with its measured melting point.

Check out these entries, answers already filled in.
[
  {
    "molecule": "NC1=C(C(=O)c2cccs2)C2=C(CCC2)S1=O (stereo not drawn)",
    "melting point": "133 to 134 °C"
  },
  {
    "molecule": "Cc1c(F)cnc(N)c1F",
    "melting point": "92 to 93 °C"
  },
  {
    "molecule": "O=C(NC1CCCCC1)c1ccc(-c2ccc3nnn(Cc4ccc5ncccc5c4)c3n2)cc1F",
    "melting point": "172 to 175 °C"
  }
]

melting point for O=CNc1cc(F)ccc1F ?
112 to 114 °C

Another: N#Cc1ccc(N2CCOCC2)c2ccccc12
128 to 129 °C
